Biological target: T1, CAPRIN-1 protein expressed on the membrane surface of human cancer cells (human, UniProt Q14444 2-709)
T1 sequence (looked up): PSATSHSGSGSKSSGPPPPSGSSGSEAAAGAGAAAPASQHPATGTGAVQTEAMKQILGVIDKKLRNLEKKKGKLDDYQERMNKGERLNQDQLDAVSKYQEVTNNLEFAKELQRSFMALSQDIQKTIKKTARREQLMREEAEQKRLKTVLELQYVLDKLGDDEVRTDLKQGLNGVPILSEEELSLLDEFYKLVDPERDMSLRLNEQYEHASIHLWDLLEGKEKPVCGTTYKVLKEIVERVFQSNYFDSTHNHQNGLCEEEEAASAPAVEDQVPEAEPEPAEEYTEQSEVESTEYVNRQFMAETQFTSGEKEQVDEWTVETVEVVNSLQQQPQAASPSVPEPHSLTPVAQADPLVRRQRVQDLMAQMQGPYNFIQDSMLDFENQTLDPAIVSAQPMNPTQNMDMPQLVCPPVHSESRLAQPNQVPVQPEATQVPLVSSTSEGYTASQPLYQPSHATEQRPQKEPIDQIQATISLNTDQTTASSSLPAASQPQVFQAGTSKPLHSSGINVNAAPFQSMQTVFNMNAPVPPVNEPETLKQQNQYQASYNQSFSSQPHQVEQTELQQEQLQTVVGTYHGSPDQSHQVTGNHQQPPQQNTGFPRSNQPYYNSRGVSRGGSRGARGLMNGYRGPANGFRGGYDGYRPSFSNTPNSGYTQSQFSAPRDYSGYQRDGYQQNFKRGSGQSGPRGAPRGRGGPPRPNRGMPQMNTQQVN
Assay: cell-based or functional assay
test.readout: ADCC cytotoxic activity (51Cr release) on U-87MG

**Q:** Recorded ADCC cytotoxic activity (51Cr release) on U-87MG of humanized antibody #2 (antibody, V domains shown) VH: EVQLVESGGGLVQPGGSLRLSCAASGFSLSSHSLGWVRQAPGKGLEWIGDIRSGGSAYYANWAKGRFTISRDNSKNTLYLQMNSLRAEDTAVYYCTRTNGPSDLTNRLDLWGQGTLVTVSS VL: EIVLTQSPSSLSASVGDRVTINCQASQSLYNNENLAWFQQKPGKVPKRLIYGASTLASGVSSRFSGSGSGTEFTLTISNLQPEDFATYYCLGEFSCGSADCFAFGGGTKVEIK , please.
**A:** ≥ 29%

**Q:** Same for humanized antibody #6 (antibody, V domains shown) VH: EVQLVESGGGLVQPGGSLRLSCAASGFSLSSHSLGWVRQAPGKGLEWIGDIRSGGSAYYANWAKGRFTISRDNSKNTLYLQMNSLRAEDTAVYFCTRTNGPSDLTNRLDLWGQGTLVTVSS VL: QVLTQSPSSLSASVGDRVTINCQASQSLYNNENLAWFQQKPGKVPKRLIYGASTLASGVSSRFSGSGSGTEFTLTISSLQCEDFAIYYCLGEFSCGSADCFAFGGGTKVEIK
**A:** ≥ 36%

**Q:** Please answer likewise for human-rabbit chimeric anti-CAPRIN-1 antibody (antibody, V domains shown) VH: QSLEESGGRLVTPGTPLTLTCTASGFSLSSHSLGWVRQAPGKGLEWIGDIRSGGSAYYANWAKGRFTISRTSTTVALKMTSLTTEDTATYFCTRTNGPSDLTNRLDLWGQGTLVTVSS VL: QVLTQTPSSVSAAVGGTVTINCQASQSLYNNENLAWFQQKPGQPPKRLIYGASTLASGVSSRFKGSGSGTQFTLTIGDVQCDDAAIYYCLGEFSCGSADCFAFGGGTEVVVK
**A:** ≥ 24%

**Q:** Now try humanized antibody #7 (antibody, V domains shown) VH: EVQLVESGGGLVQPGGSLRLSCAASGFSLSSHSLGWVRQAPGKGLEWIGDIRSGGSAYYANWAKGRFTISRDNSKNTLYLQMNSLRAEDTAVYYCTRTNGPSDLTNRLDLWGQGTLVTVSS VL: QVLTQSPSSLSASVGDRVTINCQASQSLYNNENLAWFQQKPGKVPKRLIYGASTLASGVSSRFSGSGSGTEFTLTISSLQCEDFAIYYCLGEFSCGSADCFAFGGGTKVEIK .
**A:** ≥ 36%

**Q:** Then humanized antibody #8 (antibody, V domains shown) VH: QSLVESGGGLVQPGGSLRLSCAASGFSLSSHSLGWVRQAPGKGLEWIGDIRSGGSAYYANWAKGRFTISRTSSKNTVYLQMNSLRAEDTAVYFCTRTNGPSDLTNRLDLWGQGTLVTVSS VL: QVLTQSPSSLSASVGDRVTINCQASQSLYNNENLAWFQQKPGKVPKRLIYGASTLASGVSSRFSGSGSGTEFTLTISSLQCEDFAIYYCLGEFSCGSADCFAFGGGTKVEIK ?
**A:** ≥ 24%
